In this section, each of the compounds is paired with its reported IC50.
# targetEntity: HCV NS5B RdRp genotype 1b (Hepatitis C virus genotype 1b)
# Construct: The protein was expressed with an 18 amino acid C-terminal truncation to enhance the solubility; made in house; host or cells: E. coli BL21 (DE3), pET21a
# Sequence (Q9WMX2 2420-2992): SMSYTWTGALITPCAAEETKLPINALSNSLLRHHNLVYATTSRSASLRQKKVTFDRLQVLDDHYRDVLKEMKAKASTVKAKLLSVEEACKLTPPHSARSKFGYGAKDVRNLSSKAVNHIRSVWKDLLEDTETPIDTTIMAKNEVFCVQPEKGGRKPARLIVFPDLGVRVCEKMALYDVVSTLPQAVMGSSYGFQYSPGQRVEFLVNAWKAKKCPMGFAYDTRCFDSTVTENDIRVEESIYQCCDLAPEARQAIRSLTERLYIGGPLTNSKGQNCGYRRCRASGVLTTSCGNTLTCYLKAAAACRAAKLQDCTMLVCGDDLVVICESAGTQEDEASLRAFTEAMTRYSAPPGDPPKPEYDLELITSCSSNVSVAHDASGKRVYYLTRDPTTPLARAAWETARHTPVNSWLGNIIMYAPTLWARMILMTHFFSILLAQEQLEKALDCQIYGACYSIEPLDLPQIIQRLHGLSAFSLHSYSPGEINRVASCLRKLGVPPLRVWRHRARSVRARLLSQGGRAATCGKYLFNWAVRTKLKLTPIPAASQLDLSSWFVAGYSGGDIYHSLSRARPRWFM
# assayExplanation: Standard HCV NS5B RdRp enzyme assay
# Assay type: biochemical
# runParameters: standard method

compound	IC50
O=C(O)c1ccc2c(C3CCCCC3)c3n(c2c1)CC(C(=O)N1CCCCC1)Cc1ccccc1-3 (centres unmarked) [drawing 117]	> 1000 nM
COC(=O)c1ccc2c(C3CCCCC3)c3n(c2c1)CC(=O)Nc1ccccc1-3	> 1000 nM
O=C(O)/C=C/c1ccc(NC(=O)C2(NC(=O)c3ccc4c(C5CCCCC5)c5n(c4c3)CCCc3ccccc3-5)CCNCC2)cc1	100 to 1000 nM
CN(C)S(=O)(=O)NC(=O)c1ccc2c(C3CCCCC3)c3n(c2c1)CC(C(=O)N1CCOCC1)=Cc1ccccc1-3	100 to 1000 nM
COC(=O)/C=C/c1ccc(NC(=O)C2(NC(=O)c3ccc4c(C5CCCCC5)c5n(c4c3)CC(=O)Nc3cccnc3-5)CCCC2)cc1 [drawing 98]	> 1000 nM
CN(C)CCNC(=O)C1Cc2ccccc2-c2c(C3CCCCC3)c3ccc(C(=O)NS(=O)(=O)N(C)C)cc3n2C1 (centres unmarked)	100 to 1000 nM
Cn1cnc(S(=O)(=O)NC(=O)c2ccc3c(C4CCCCC4)c4n(c3c2)CCCc2ccccc2-4)c1	> 1000 nM
O=C(O)c1ccc2c(C3CCCCC3)c3n(c2c1)CCCc1occc1-3	> 1000 nM
